Below, each of the molecules is paired with its reported Ratio value.
Target: GABA-A receptor; alpha-1/beta-2/gamma-2 (Rattus norvegicus) (UniProt P18508+P62813+P63138)
Assay: Ratio of currents mediated by rat Alpha-1-beta-2-gamma-2L GABA-A receptor expressed in Xenopus oocytes at 0.1 uM in presence of 2 uM GABA
Type: cell-based
Details: Oocyte
Number only, please.

Answered cases to consult:
CC(=O)[C@H]1CC[C@H]2[C@@H]3C[C@H](C)[C@H]4C[C@H](O)CC[C@]4(C)[C@H]3CC[C@]12C
1.01
CC(=O)[C@H]1CC[C@H]2[C@@H]3C[C@@H](C)[C@H]4C[C@H](O)CC[C@]4(C)[C@H]3CC[C@]12C
2.5

Qu. Quick one: Ratio for CC(=O)[C@H]1CC[C@H]2[C@@H]3CC[C@@H]4C[C@H](O)CC[C@]4(C)[C@H]3CC[C@]12C ?
Ans. 1.2

Qu. Quick one: Ratio for CC(=O)[C@H]1CC[C@H]2[C@@H]3C[C@H](C)[C@@H]4C[C@H](O)CC[C@]4(C)[C@H]3CC[C@]12C ?
Ans. 0.96

Qu. Quick one: Ratio for CC(=O)[C@H]1CC[C@H]2[C@@H]3C[C@@H](C)[C@@H]4C[C@H](O)CC[C@]4(C)[C@H]3CC[C@]12C ?
Ans. 1.48

Qu. Quick one: Ratio for CC(=O)[C@H]1CC[C@H]2[C@@H]3CC[C@H]4C[C@H](O)CC[C@]4(C)[C@H]3CC[C@]12C ?
Ans. 1.26

----------
Molecular target: GABA-A receptor; anion channel
Experiment: Displacement of [35S]TBPS from picrotoxin site of GABA-A receptor of rat brain membranes
pIC50: −log10 of the molar value.
Label rule, in plain words: pIC50 of 6 and up is MET, under 6 is NOT MET.

CC(=O)[C@H]1CC[C@H]2[C@@H]3[C@H](C)C[C@H]4C[C@H](O)CC[C@]4(C)[C@H]3CC[C@]12C
NOT MET
CC(=O)[C@H]1CC[C@H]2[C@@H]3C[C@@H](C)[C@@H]4C[C@H](O)CC[C@]4(C)[C@H]3CC[C@]12C
MET
CC(=O)[C@H]1CC[C@H]2[C@@H]3[C@H](C)C[C@@H]4C[C@@H](O)CC[C@]4(C)[C@H]3CC[C@]12C
NOT MET
CC(=O)[C@H]1CC[C@H]2[C@@H]3C[C@@H](C)[C@H]4C[C@H](O)CC[C@]4(C)[C@H]3CC[C@]12C
MET
CC(=O)[C@H]1CC[C@H]2[C@@H]3C[C@H](C)[C@H]4C[C@H](O)CC[C@]4(C)[C@H]3CC[C@]12C
NOT MET

# ---- query molecule ----
Qu. Please tell me: is the molecule CC(=O)[C@H]1CC[C@H]2[C@@H]3C[C@H](C)[C@@H]4C[C@H](O)CC[C@]4(C)[C@H]3CC[C@]12C at or over 6 in terms of pIC50?
Ans. NOT MET

----------
Below, each of the molecules is paired with its reported Ratio value.
Target: GABA-A receptor; alpha-1/beta-2/gamma-2 (Rattus norvegicus) (UniProt P18508+P62813+P63138)
Assay: Ratio of currents mediated by rat Alpha-1-beta-2-gamma-2L GABA-A receptor expressed in Xenopus oocytes at 10 uM in presence of 2 uM GABA
Format: cell-based
Settings: Oocyte
Number only, please.

Answered cases to consult:
CC(=O)[C@H]1CC[C@H]2[C@@H]3C[C@H](C)[C@H]4C[C@H](O)CC[C@]4(C)[C@H]3CC[C@]12C
3.24
CC(=O)[C@H]1CC[C@H]2[C@@H]3C[C@H](C)[C@@H]4C[C@H](O)CC[C@]4(C)[C@H]3CC[C@]12C
2.51
CC(=O)[C@H]1CC[C@H]2[C@@H]3CC[C@H]4C[C@H](O)CC[C@]4(C)[C@H]3CC[C@]12C
9.65
CC(=O)[C@H]1CC[C@H]2[C@@H]3C[C@@H](C)[C@@H]4C[C@H](O)CC[C@]4(C)[C@H]3CC[C@]12C
22.5
CC(=O)[C@H]1CC[C@H]2[C@@H]3C[C@@H](C)[C@H]4C[C@H](O)CC[C@]4(C)[C@H]3CC[C@]12C
10

// next entry
Qu. Form: Entry = CC(=O)[C@H]1CC[C@H]2[C@@H]3CC[C@@H]4C[C@H](O)CC[C@]4(C)[C@H]3CC[C@]12C | System = GABA-A receptor; alpha-1/beta-2/gamma-2 (Rattus norvegicus) (UniProt P18508+P62813+P63138) | Ratio = ____
Ans. 9.77

----------
Target: GABA-A receptor; alpha-1/beta-2/gamma-2 (Rattus norvegicus) (UniProt P18508+P62813+P63138)
Assay: Ratio of currents mediated by rat Alpha-1-beta-2-gamma-2L GABA-A receptor expressed in Xenopus oocytes at 1.0 uM in presence of 2 uM GABA
Type: cell-based
Conditions: Oocyte
PROPERTY LABEL: Ratio
Number only, please.

Answered cases to consult:
CC(=O)[C@H]1CC[C@H]2[C@@H]3CC[C@@H]4C[C@H](O)CC[C@]4(C)[C@H]3CC[C@]12C
2.82
CC(=O)[C@H]1CC[C@H]2[C@@H]3CC[C@H]4C[C@H](O)CC[C@]4(C)[C@H]3CC[C@]12C
3.89
CC(=O)[C@H]1CC[C@H]2[C@@H]3C[C@@H](C)[C@H]4C[C@H](O)CC[C@]4(C)[C@H]3CC[C@]12C
7.7
CC(=O)[C@H]1CC[C@H]2[C@@H]3C[C@H](C)[C@H]4C[C@H](O)CC[C@]4(C)[C@H]3CC[C@]12C
1.17
CC(=O)[C@H]1CC[C@H]2[C@@H]3C[C@H](C)[C@@H]4C[C@H](O)CC[C@]4(C)[C@H]3CC[C@]12C
1.02

// next entry
Qu. Quick one: Ratio for CC(=O)[C@H]1CC[C@H]2[C@@H]3C[C@@H](C)[C@@H]4C[C@H](O)CC[C@]4(C)[C@H]3CC[C@]12C ?
Ans. 4.36

----------
Target: GABA-A receptor; alpha-1/beta-2/gamma-2 (Rattus norvegicus) (UniProt P18508+P62813+P63138)
Experiment: Ratio of currents mediated by rat Alpha-1-beta-2-gamma-2L GABA-A receptor expressed in Xenopus oocytes at 10 uM in the absence of GABA
Assay type: cell-based
Conditions: Oocyte
Label rule, in plain words: Ratio of 0.1 and up is Condition met, under 0.1 is Condition not met.

Study these solved cases before continuing.
CC(=O)[C@H]1CC[C@H]2[C@@H]3C[C@H](C)[C@@H]4C[C@H](O)CC[C@]4(C)[C@H]3CC[C@]12C
Condition met
CC(=O)[C@H]1CC[C@H]2[C@@H]3C[C@H](C)[C@H]4C[C@H](O)CC[C@]4(C)[C@H]3CC[C@]12C
Condition not met
CC(=O)[C@H]1CC[C@H]2[C@@H]3CC[C@H]4C[C@H](O)CC[C@]4(C)[C@H]3CC[C@]12C
Condition met
CC(=O)[C@H]1CC[C@H]2[C@@H]3C[C@@H](C)[C@@H]4C[C@H](O)CC[C@]4(C)[C@H]3CC[C@]12C
Condition met
CC(=O)[C@H]1CC[C@H]2[C@@H]3C[C@@H](C)[C@H]4C[C@H](O)CC[C@]4(C)[C@H]3CC[C@]12C
Condition met

# ---- query molecule ----
Qu. Please tell me: is the molecule CC(=O)[C@H]1CC[C@H]2[C@@H]3CC[C@@H]4C[C@H](O)CC[C@]4(C)[C@H]3CC[C@]12C at or over 0.1 in terms of Ratio?
Ans. Condition not met

----------
Below, each of the compounds is paired with its reported IC50 value.
Biological target: GABA-A receptor; anion channel
Assay: Displacement of [35S]TBPS from picrotoxin site of GABA-A receptor of rat brain membranes
Report the value in nM with no unit label.

Qu. Quick one: IC50 for CC(=O)[C@H]1CC[C@H]2[C@@H]3[C@@H](C)C[C@@H]4C[C@H](O)CC[C@]4(C)[C@H]3CC[C@]12C ?
Ans. 1240

Qu. Quick one: IC50 for CC(=O)[C@H]1CC[C@H]2[C@@H]3[C@@H](C)C[C@H]4C[C@H](O)CC[C@]4(C)[C@H]3CC[C@]12C ?
Ans. 1240

Qu. Quick one: IC50 for CC(=O)[C@H]1CC[C@H]2[C@@H]3[C@H](C)C[C@@H]4C[C@H](O)CC[C@]4(C)[C@H]3CC[C@]12C ?
Ans. 1040

Cited source for all entries: ChEMBL document CHEMBL1143613
